- System: HCV replicons (HCV type 1b, Huh-7 luc/neo cells)
- EXPERIMENT NOTES: Replicon assay (Huh-Luc cells, luciferase read-out)
- Assay type: cell-based
- APPLIED CONDITIONS: Hepatitis C virus, Huh-7, 72 h
MEASURED PARAMETER: EC50 (µM)
# number only, unit µM dropped from output

COc1ccc2c(O[C@@H]3C[C@H]4C(=O)N[C@]5(C(=O)O)C[C@H]5/C=C\CCCCN(C)C(=O)[C@@H]4C3)nc(-n3cccn3)cc2c1
20.9

Consider the additional compound presented here.
# lookup: COc1ccc2c(O[C@@H]3C[C@H]4C(=O)N[C@]5(C(=O)NS(=O)(=O)C6CC6)C[C@H]5/C=C\CCCCN(C)C(=O)N4C3)nc(-c3ccccc3)cc2c1 on HCV replicons (HCV type 1b, Huh-7 luc/neo cells), EC50 = 1.03

====

- TGT: HCV NS3/4A protease complexes (full-length hepatitis C NS3 protease enzyme with NS4A cofactor) (Hepatitis C virus genotype 1a, UniProt P27958)
- Construct: full-length hepatitis C NS3 protease enzyme
- Sequence (P27958 1027-1657, one chain of several): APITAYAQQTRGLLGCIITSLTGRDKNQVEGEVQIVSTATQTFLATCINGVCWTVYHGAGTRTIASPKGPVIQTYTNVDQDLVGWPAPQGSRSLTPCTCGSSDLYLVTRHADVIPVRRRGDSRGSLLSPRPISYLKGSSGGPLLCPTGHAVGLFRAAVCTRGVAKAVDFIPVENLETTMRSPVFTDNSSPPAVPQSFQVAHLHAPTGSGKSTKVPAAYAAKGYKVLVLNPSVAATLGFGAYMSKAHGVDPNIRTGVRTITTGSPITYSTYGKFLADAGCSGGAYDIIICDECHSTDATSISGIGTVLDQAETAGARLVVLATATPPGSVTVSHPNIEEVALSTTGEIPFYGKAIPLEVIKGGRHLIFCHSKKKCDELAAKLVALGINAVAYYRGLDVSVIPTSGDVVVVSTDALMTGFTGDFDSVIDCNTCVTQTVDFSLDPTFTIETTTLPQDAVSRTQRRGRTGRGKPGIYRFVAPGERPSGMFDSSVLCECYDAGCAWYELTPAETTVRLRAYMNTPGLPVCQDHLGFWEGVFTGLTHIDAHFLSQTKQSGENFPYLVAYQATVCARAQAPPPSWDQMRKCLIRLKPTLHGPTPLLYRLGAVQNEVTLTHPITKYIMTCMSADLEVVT
- EXPERIMENT NOTES: Inhibition assay (enzymatic assay, depsipeptide substrate hydrolysis)
- APPLIED CONDITIONS: enzyme 1 nM, 25 μM NS4A cofactor, 0.5 μM substrate, 30° C., pH 7.5, model for competitive inhibition
MEASURED PARAMETER: pKi
Bear in mind: pKi is minus log10 of a mol/L concentration; give just that figure.

Some solved entries appear below for comparison.
COc1ccc2c(O[C@@H]3C[C@H]4C(=O)N[C@]5(C(=O)NS(=O)(=O)C6CC6)C[C@H]5/C=C\CCCCN(C)C(=O)N4C3)nc(-c3ccccc3)cc2c1
8.96
COc1ccc2c(O[C@@H]3C[C@H]4C(=O)N[C@]5(C(=O)O)C[C@H]5/C=C\CCCCN(C)C(=O)N4C3)nc(Cl)cc2c1
6.21
COc1ccc2c(O[C@@H]3C[C@H]4C(=O)N[C@]5(C(=O)NS(=O)(=O)C6CC6)C[C@H]5/C=C\CCCCN(C)C(=O)[C@@H]4C3)nc(-c3csc(NC(C)C)n3)cc2c1
8.48
COc1ccc2c(O[C@@H]3C[C@H]4C(=O)N[C@]5(C(=O)O)C[C@H]5/C=C\CCCCN(C)C(=O)N4C3)nc(-c3ccc(OC(F)(F)F)cc3)cc2c1
6.68
COc1ccc2c(O[C@@H]3C[C@H]4C(=O)N[C@]5(C(=O)NS(=O)(=O)C6CC6)C[C@H]5/C=C\CCCCN(C)C(=O)[C@@H]4C3)nc(-c3nc(C4CC4)cs3)cc2c1
8.77
COc1ccc2c(O[C@@H]3C[C@H]4C(=O)N[C@]5(C(=O)NS(=O)(=O)C6CC6)C[C@H]5/C=C\CCCCN(C)C(=O)N4C3)nc(-n3cccn3)cc2c1
8.60

Would you kindly look at the next entry?
Entry COc1ccc2c(O[C@@H]3C[C@H]4C(=O)N[C@]5(C(=O)O)C[C@H]5/C=C\CCCCN(C)C(=O)[C@@H]4C3)nc(-c3nc(C(C)C)cs3)cc2c1 ; pKi = 6.52

====

- TGT: HCV NS3/4A protease complexes (full-length hepatitis C NS3 protease enzyme with NS4A cofactor) (Hepatitis C virus genotype 1a)
- Construct: full-length hepatitis C NS3 protease enzyme
- EXPERIMENT NOTES: Inhibition assay (enzymatic assay, depsipeptide substrate hydrolysis)
- APPLIED CONDITIONS: enzyme 1 nM, 25 μM NS4A cofactor, 0.5 μM substrate, 30° C., pH 7.5, model for competitive inhibition
Recorded measurements of Ki, one per entry
A number alone suffices; assume nM.

Consider the following illustrative entries.
COc1ccc2c(O[C@@H]3C[C@H]4C(=O)N[C@]5(C(=O)NS(=O)(=O)C6CC6)C[C@H]5/C=C\CCCCN(C)C(=O)N4C3)nc(Cl)cc2c1 [Compound 43]
15
COc1ccc2c(O[C@@H]3C[C@H]4C(=O)N[C@]5(C(=O)NS(=O)(=O)C6CC6)C[C@H]5/C=C\CCCCN(C)C(=O)N4C3)nc(-c3nc(C(C)C)cs3)cc2c1 [Compound 70]
33
COc1ccc2c(OC3CC4C(=O)NC5(C(=O)O)CC5C=CCCCCN(C)C(=O)C4C3)nc(-c3nc(C4CC4)cs3)cc2c1 (stereo not shown) [Compound 29]
150

The recorded Ki for COc1ccc2c(O[C@@H]3C[C@H]4C(=O)N[C@]5(C(=O)NS(=O)(=O)C6CC6)C[C@H]5/C=C\CCCCN(C)C(=O)N4C3)nccc2c1Br [Compound 51] is 1.7

Ki in this record for COc1ccc2c(O[C@@H]3C[C@H]4C(=O)N[C@]5(C(=O)NS(=O)(=O)C6CC6)C[C@H]5/C=C\CCCCN(C)C(=O)[C@@H]4C3)nc(-c3nc(C(C)C)cs3)cc2c1 [Compound 32] : 1.4

GET /value?item= COc1ccc2c(O[C@@H]3C[C@H]4C(=O)N[C@]5(C(=O)NS(=O)(=O)C6CC6)C[C@H]5/C=C\CCCCN(C)C(=O)[C@@H]4C3)nc(-n3cccn3)cc2c1 [Compound 36] &field=Ki returns 0.7
